A collection of binders and their measured OD450
# ASSAYED_TARGET: T1, human MSLN-R3-his protein (human, UniProt Q13421 487-598)
# T1 construct: it is put last here; also called human MSLN-R3 protein; hMSLN-R3-his; not shown: His tag
# T1 sequence (Q13421 495-606): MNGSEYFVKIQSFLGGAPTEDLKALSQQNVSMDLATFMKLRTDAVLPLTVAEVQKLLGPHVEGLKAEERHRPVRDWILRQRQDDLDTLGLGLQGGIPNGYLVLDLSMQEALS
# METHOD_NOTES: ELISA on coated antigen, antibody 20 nM
# value in OD; strip the unit string

Solved cases (3 shown):
{"columns": ["BINDER", "OBSERVED_VALUE"],
 "data": [
  ["S009-F7.18.10 (antibody, human IgG1, kappa, V domains shown, Human-murine chimeric antibody, human IgG1 heavy and kappa light constant regions) VH: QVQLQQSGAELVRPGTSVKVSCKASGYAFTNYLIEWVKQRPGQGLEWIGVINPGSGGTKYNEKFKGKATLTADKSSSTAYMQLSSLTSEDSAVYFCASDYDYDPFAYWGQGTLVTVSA VL: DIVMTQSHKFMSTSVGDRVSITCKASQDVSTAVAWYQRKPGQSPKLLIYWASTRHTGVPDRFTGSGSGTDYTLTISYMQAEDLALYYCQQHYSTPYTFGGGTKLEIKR", 0.14],
  ["S009-F7.61.21 (antibody, human IgG1, kappa, V domains shown, Human-murine chimeric antibody, human IgG1 heavy and kappa light constant regions) VH: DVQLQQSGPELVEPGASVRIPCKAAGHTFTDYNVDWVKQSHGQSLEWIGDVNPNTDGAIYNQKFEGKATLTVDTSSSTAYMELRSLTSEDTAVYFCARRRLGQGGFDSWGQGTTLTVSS VL: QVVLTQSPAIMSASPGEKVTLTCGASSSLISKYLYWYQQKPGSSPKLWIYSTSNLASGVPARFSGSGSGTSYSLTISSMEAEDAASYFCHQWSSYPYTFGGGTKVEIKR", 2.39],
  ["S009-F7.53.2 (antibody, human IgG1, kappa, V domains shown, Human-murine chimeric antibody, human IgG1 heavy and kappa light constant regions) VH: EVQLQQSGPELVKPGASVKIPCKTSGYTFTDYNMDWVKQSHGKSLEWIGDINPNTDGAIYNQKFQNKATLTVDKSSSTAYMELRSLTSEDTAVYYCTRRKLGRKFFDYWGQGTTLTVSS VL: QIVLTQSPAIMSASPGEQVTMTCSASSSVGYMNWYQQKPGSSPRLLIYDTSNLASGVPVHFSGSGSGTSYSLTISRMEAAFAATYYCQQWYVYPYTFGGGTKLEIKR", 2.42]
]}

Challenge: Entry S009-F7.30.5 (antibody, human IgG1, kappa, V domains shown, Human-murine chimeric antibody, human IgG1 heavy and kappa light constant regions) VH: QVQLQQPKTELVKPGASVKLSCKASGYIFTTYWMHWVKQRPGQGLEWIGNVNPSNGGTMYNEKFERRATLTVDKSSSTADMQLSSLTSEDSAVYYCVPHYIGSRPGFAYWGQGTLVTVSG VL: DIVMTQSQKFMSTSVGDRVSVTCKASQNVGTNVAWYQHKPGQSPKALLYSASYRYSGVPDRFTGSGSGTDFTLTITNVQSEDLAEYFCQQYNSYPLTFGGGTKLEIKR : reported OD450 = ?
Response given: 2.84

Challenge: Entry S009-F7.65.13 (antibody, human IgG1, kappa, V domains shown, Human-murine chimeric antibody, human IgG1 heavy and kappa light constant regions) VH: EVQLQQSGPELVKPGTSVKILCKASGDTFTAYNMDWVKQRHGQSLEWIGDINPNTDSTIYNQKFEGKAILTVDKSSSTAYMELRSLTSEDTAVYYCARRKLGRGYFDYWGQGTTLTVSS VL: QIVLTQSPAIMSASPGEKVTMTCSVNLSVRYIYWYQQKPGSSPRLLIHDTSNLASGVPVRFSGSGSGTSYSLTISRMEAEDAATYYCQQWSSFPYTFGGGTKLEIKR : reported OD450 = ?
Response given: 2.34
